assay-details: inhibition of 3D7 malaria parasite growth – strain 3D7 (AID 2306);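 note: 0% = DMSO wells and 100% = chloroquine plus artemisinin control wells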
run-conditions: P. falciparum 3D7 erythrocytic growth, LDH absorbance, 72 h; at 2 µM; active compounds read high
Listed next: entries and their corresponding growth inhibition.
observable: growth inhibition (%)

> print(dat)
                                    compound  recorded.result
 1  COc1cc(OC)cc(-c2nnc(Sc3ccc(C#N)c([N+](=O)[O-])c3)n2C)c1               95
 2  CCOC(=O)NOC(C(=O)O)c1ccccc1 (stereo not given)               99
 3  CCCCNC(=O)[C@H](Cc1ccccc1)NC(=O)c1ccc(O)c(-c2ccc(Cl)c(Cl)c2)c1               98
 4  COc1ccc(CN2CCCN(Cc3cccc(C(=O)Nc4ccc(C(C)(C)C)cc4)c3)CC2)cc1               98
 5  NC1CCCN(Cc2cccc(-c3ccc(-c4nc5ccc(F)cc5[nH]4)cc3)c2)C1 (stereo not given)              101
 6  CCOc1c(N2CCN(CCCCNC(=O)c3ccc(NC(=O)c4ccc(Cl)cc4)cc3)CC2)ccc2ccccc12              100
 7                CC(C)CCNCc1c(O)ccc2ccccc12               95
 8  Cc1cccc(Cn2nc(-c3ccccc3)c(N3CCCCC3)cc2=O)c1               98
 9  CCc1c(CCNCCCCCCNCCc2ccc([N+](=O)[O-])cc2)ccc(O)c1O               94
10  COc1cc(C(=O)NC2CCN(Cc3ccccc3)CC2)ccc1-c1nc2c(Cl)cc(C(F)(F)F)cc2[nH]1              103

====

assay-details: inhibition of 3D7 malaria parasite growth – strain 3D7 (AID 2306);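 note: 0% = DMSO wells and 100% = chloroquine plus artemisinin control wells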
run-conditions: P. falciparum 3D7 erythrocytic growth, LDH absorbance, 72 h; at 2 µM; active compounds read high
// growth inhibition lookup, one value per entry
observable: growth inhibition (%)

> print(dat)
                                   molecule  recorded.result
1  CCN(CC)C(=NCCCCCCN=C(NC(N)=NCc1ccc(Cl)cc1Cl)N(CC)CC)NC(N)=NCc1ccc(Cl)cc1Cl              102
2  Cc1ccc(-c2ccc(NC(=O)N3CCc4cc(Br)c(N5CCN(C)CC5)cc43)cc2)cn1               80
3  CC(=O)Nc1ccc(S(=O)(=O)N2CCN(c3nc(NC4CCCC4)c4ccccc4n3)CC2)cc1               88
4  c1ccc(CNCc2cccc(-c3ccc(-c4nc5ccccc5[nH]4)cc3)c2)cc1               97
5  COc1cc2nc(NCCn3cccn3)nc(NCCc3ccccc3)c2cc1OC              102
6  COc1cccc(NC(=O)[C@H](C)n2c(=O)[nH]c3ccccc3c2=O)c1              100
7  COc1ccc2ncc(F)c(CCN3C[C@H](CNCc4ccc5oc(=O)ccc5c4)[C@H](O)C3)c2n1               89
8  O=[N+]([O-])c1cccc(CNCC2CCC(CNCc3cccc([N+](=O)[O-])c3)CC2)c1 (centres undefined)              100
9  N#Cc1ccc2c(c1)CN(C1CCC(NC(=O)c3cc(-c4ccc(Cl)cc4)cs3)CC1)CCC2 (centres undefined)              101
